System: K4 kissing-loop RNA reporter
Method: apparent KD of K4 kissing-loop reporter; higher = weaker reporter binding
Run conditions: Eterna round: R107; input ligand: FMN 200 uM
Endpoint label: apparent KD of K4 kissing-loop reporter (nM)
Provide the reading as a plain figure in nM.

Recorded apparent KD of K4 kissing-loop reporter, per entry:
Sequence string	Recorded result
UCGCACCUGUGGGCGAGGCCUAUAAUUGUCAAGGAUAUAGAUCAUUCUAGAAGGUGACACUUCGCGAGUGAUGUUCGGGAAAUGC [theeternabot_sameState_KL_FMN_A_8]	386
AGAGAUAUAUGAGGAUAUGGGAUAGUUAAUGAGUUAGUUUUAGUGUUGUUUGGUUAGUGAUGUUAUUUAGAAGGCGUGAGUGAUG [rxxvgmullin]	106
UGACUGGAUGGAAGGAGCGCUAAACUCCUAGUGAUGUUAGGGAUAUGAGGCAAAGCCUUGAGGCAGGUAGGUCGCCAUCUAGUCU [FiskerMod 25 - Jieux - Same State - Arginine B]	191

Suppose we examine the sequence AAAAUAAAUAGCAGUCACGGAGUGAUGUUCCGAGGACCGGUACGGCCGCCACUCGACCAUCAUAAGAUGGAAUGGCGAGACUGCA [#SwitchBubble 21 #K4Early] ; what apparent KD of K4 kissing-loop reporter value has been reported? 134

Would you kindly repeat that for AUAUCUAGAGUGAUGUUCUAGUAAGCUGAAGGAGCGGACGAAAGUCCAGGUAGGUCGCAGUGUUUUUACACCUCAUGUGUAGGAG [KL-SSArg-A7 #analogue] ? 118

Quick one: UGUGUUUUUUUGAUGUUUGUUGUAAAAUGGCAGGAUAUCGUAGAGGCGAGAAGGGCUUUUAUGCGUUAUGAGUGAUGUUUGUAGG [qqdqmullin] 316

###

System: MS2 coat protein
Method: apparent KD of MS2 coat protein, switch ON state; designed switch direction (-1 OFF switch, 1 ON switch): 1; higher = weaker reporter binding
Run conditions: FMN input: 0 or 200 uM; Eterna round: R93 (includes R88 designs)
Output Yes for apparent KD of MS2 coat protein not less than 20 nM; output No otherwise.

In plain terms: is recorded apparent KD of MS2 coat protein at least 20 nM for UAAUAAUAAACCAAGGAUAUGGAGUAUAGCACAUGAGGAUCACCCAUGUGUAGCGUGGGUUAGUACCAGAAGGUGGAGUGAAAUG [JR_SS002_Sub1001] ? Yes

###

Tested on: MS2 coat protein
Method: apparent KD of MS2 coat protein; designed switch direction (-1 OFF switch, 1 ON switch): 1; higher = weaker reporter binding
Run conditions: input ligand: FMN 200 uM
Here, each record is paired with measured apparent KD of MS2 coat protein data.
Note: unit nM is implicit; provide only the numeric part.

Recorded results for 4 sequences are shown here.
Sequence string	Recorded result
AUAUAACAUGAGGAUCACCCAUGUCUCUAAAGUCGAGGAUAUGGGCAGGUUAUAUCCGAACCAGAAGGCGGGUUAU [SS1 Teenbexe 8] (Eterna round: R96, puzzle: Same State 1)	1020
AUUAUUUCUGCAGGAUAUGAUUAACAUGAGGAUCACCCAUGUGGUGUUGUGAGUAAGGAGAGUGAUCAGAAGGGCAUUUUUUUU [JMF's solution 62] (Eterna round: R96, puzzle: Same State NG 2)	630
AUUAUUAAUGCAGGAUAUGAUUAACAUGAGGAUCACCCAUGUGGUGUUGUGAGUAAGGAGAGUGAUCAGAAGGGCAGUUUUUUU [JMF's solution 8] (Eterna round: R96, puzzle: Same State NG 2)	614
CUCCUAUCGGGAGGAUAUGGUGCCUUGUUGGUGCUAGAAGGUCCAACAUGAGGAUCACCCAUGUGGGAGUGGUUGAGAGACCUC [SS NG10LRO13] (Eterna round: R96, puzzle: Same State NG 1)	131

Next item in the queue.
Consider the sequence ACUAGAUCGAAAGAUCUAGAAAACGAGUAACAUGAGGAUCACCCAUGUUCAUGUUGCUCGUCUUAAGCCGAAAGGCG [JL ALT 15] (Eterna round: R96, puzzle: Sensor for hsa-mir-208a) and give its measured apparent KD of MS2 coat protein. 71.5

###

Tested on: MS2 coat protein
Method: apparent KD of MS2 coat protein; designed switch direction (-1 OFF switch, 1 ON switch): -1; higher = weaker reporter binding
Run conditions: Eterna round: R95; input ligand: FMN 200 uM
As shown below, each of these sequences has a reported apparent KD of MS2 coat protein value.
State the value with its unit after it.

Sequence string	apparent KD of MS2 coat protein
AAAAAGCGAGGAUAUACAUGAGGAUCACCCAUGUGAGGGCACCGCGGGCGCGGGACCGGUAGAAGGCGCAAAAA [Exc;s3-II] (puzzle: Exclusion 3)	33.6 nM
GACCGGACGUGGUCAGGUAACAUGAGGAUCACCCAUGUAGGUCUAGGAACAAGCCUUUUGUAGGCUCGUCUUAUAAA [JR_SV3TOV1_Sub059] (puzzle: Sensor v3, turn-off variant 1)	47.5 nM
UCAUGUUUAGAGGAUAUGAUUACUCUAGAGUGAUCAGAAGGCUAGACAUGAGGAUCACCCAUGUCAGAACAUGA [Exclusion 6 - B - 16:b] (puzzle: Exclusion 6)	95.4 nM
UAGAAUCGAGGAUAUACAUGAGGAUCACCCAUGUGUUGCCGCAUGAUAUGAUCGUCAGGUAGAAGGCGAUUAUA [Exclusion 3 - Mod of Jieux's Gilly Gone Silly 23 v.6] (puzzle: Exclusion 3)	37.6 nM

Could you share which apparent KD of MS2 coat protein value was measured for AGAUGGCGAGGAUAUACAUGAGGAUCACCCAUGUGAGAAGAGAAAGUGAGGAAGAAAAGUAGAAGGCGCUGUCA [Mat - Exclusion 3 - Mod of Salish D21] (puzzle: Exclusion 3) ? 200 nM

###

Test system: K4 kissing-loop RNA reporter;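 also: bound reporter read as fluorescence of individual clusters on recovered sequencing chips by microscopy, with normalized cluster intensities fitted with a binding model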
Method: apparent KD of K4 kissing-loop reporter; higher = weaker reporter binding
Run conditions: Eterna round: R107; input ligand: theophylline 20 uM
// apparent KD of K4 kissing-loop reporter lookup, one value per entry

Sequence string	Target under test	Recorded result
GGGUCUGUCGGAAGGAGCGCACUAUGGAGUGAUGUUCCAUGACCGCACAGCUUGCGGUCAGUGCAGGUAGGUCGCCGAUAGCUUU [Usquso]	K4 kissing-loop RNA reporter	286 nM
GUCGGGACUCGAGGAUAUCAGUGGAGGCCAGUGAUGUUGGCCGUCCCGGUAGUUAAAAUUUUACCCUGAGAAGGCGAUUUCUGUC [Veceinusqu]	K4 kissing-loop RNA reporter	131 nM

From here, focus on the item given below.
For the sequence UGGCAAGUGAUGUUUGCGUUUCCGCAGGAUACCAGUCUGUCUUGAGACCCUUGGCAGCCUGGGUACAGUCCAAGCGGUCACACGA [theeternabot_exclusion_KL_Theo_A_38] , what apparent KD of K4 kissing-loop reporter is on record? 375 nM

###

Tested on: MS2 coat protein
Method: apparent KD of MS2 coat protein; designed switch direction (-1 OFF switch, 1 ON switch): -1; higher = weaker reporter binding
Run conditions: input ligand: none
Outcome: label 1 for apparent KD of MS2 coat protein of at least 40 nM; label 0 for anything lower.

Sequence string	Assigned class
UGUCAGAUGGUAGGAUAUCCAUAUCGAGUGACCCUUUCAUAACAUGAGGAUCACCCAUGUCGGUGGGAGAAGGGCCGUACGGUG [salish99_ExNG02_R04_024] (Eterna round: R96, puzzle: Exclusion NG 2)	label 0
UCGUGAUUAGAGGAUAUAUUAAGGGUCAGAACAAUAGAAGGCUAAACAUGAGGAUCACCCAUGUAAAUGGUUUU [JR_Ex6_Sub058] (Eterna round: R97, puzzle: Exclusion 6)	label 1
AACCUGAGGCAAAGCUUUAGGUGUACAUGAGGAUCACCCAUGUAGGAUAUGGUAGGCAAAGCUUACCAGAAGGACAUAAUGAUG [Mat - Exclusion NG 3 - Mod of JL - D47] (Eterna round: R96, puzzle: Exclusion NG 3)	label 1

Would you say CUGUACUGAGGAUAUACAUGAGGAUCACCCAUGUUCCAAGGCUAGGAAACUAGCAAAAGUAGAAGGCAGUACAG [Mat - Exclusion 3 - Eli Mod - D55] (Eterna round: R97, puzzle: Exclusion 3) shows apparent KD of MS2 coat protein at minimum 40 nM? label 0

Would you mind doing UACUUGUUAGGAUAUCUUACAUUUGCAUUAUAGCAACUAUUGGAGAAGGGACAUGAGGAUCACCCAUGUUUGGG [tap-tap-tappy16] (Eterna round: R97, puzzle: Exclusion 4) as well? label 1

Moving on to ACAUGUAUUGCAGGAUAUGGGACACAUGAGGAUCACCCAUGUGACUACAUGUAAUGCCACGGGUCUCAGAAGGGUAUGUACAUG [Ex NG2 #42] (Eterna round: R96, puzzle: Exclusion NG 2) label 0

Now the sequence UAUUUAGCAAGCAGAUCCCACAUGAGGAUCACCCAUGUUCUCUGAAAGUACAGAAUUACUGUACUUGCUCGUCUUAU [Winner reversed engineered 34] (Eterna round: R97, puzzle: Sensor, turn-off variant 1) label 1

Thanks! And GGGCCCGGUGUGAGGAUAUGUUUGGGUAAACCCGGGCAGAAGGCACAUGAGGAUCACCCAUGUAAGCCGGGCCC [-37.5, -35.4 kcal, A 23%, 5bbis-0] (Eterna round: R97, puzzle: Brourd's mod of Exclusion 4) ? label 0
